These measurements were taken from the RNAGym collection of RNA variant scans (doi:10.7554/elife.80360).

Below is a list of entries, each paired with its recorded self-cleavage value.
B1: CPEB3 Ribozyme (parent)
chain: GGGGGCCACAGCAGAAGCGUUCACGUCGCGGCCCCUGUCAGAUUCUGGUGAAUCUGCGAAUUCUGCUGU

Variants of: B1
Assay: self-cleavage, relative activity (ratio to wild type); higher = more cleavage; co-transcriptional

{"variant.label": "G58A U67C", "result": 0.993}
{"variant.label": "A23G G30U", "result": 0.229}
{"variant.label": "C29G U62G", "result": 0.206}

Input: What does the data say about its self-cleavage? Entry: G30A U67G
Output: 0.948

Input: Data request, read-out self-cleavage, for C24A C39U
Output: 0.493

Input: Which self-cleavage is listed for C63G U67C ?
Output: 0.569

Input: For the variant shown here, G2C C24G , give the reported self-cleavage.
Output: 0.0232

Input: Query: self-cleavage; subject: G1C C27A
Output: 0.211

Input: I'd like to know its self-cleavage. The variant in question is C22U U43G
Output: 0.222

Input: Which self-cleavage value belongs to G56A G65A ?
Output: 0.777
